Target Desc: T1, recombinant human CD3 epsilon/delta heterodimer (human, UniProt P07766 23-126; P04234 22-105)
T1 construct: Recombinant protein in solution (200-50 nM) in the Octet assay; also called hCD3 E/D; human CD3E/D
T1 sequence (P07766 23-126, stated change not applied, chain 1 of 2): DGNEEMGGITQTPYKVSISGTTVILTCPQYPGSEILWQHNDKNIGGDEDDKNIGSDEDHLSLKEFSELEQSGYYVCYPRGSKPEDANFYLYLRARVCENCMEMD
T1 sequence (P04234 22-105, stated change not applied, chain 2 of 2): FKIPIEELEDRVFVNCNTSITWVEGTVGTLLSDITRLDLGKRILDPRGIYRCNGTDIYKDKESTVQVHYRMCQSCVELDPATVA
Assay: Octet BLI, mAb on FAB2G sensor, hCD3 E/D 200-50 nM; R^2 1.00
Kindly supply the reported koff values for the records listed here.
Report the figure in s⁻¹ without appending any unit label.

Notebook: ABL-CD3-59 (antibody, V domains shown, Chimeric hybridoma mAb: human V, CH1, upper hinge; mouse middle hinge, CH2, CH3) VH: EVQLVESGGGLVKPGGSLRLSCTASGFTLSSYSMNWVRQAPGKGLEWVSSLSRSSNYIYYAVSVKGRFTISRDNAKNSLYLQMNSLRAEDTAVYYCARERWELLYFDYWGQGTLVTVSS VL: NFMLTQPHSVSESPGKTVTISCTRSSGSIASNYVQWYQQRPGSSPTTVIYEDNQRPSGVPDRFSGSIDSSSNSASLTISGLQTEDEADYYCQSYDNSIRVFGGGTKLTVL , koff read as 0.00105

Notebook: ABL-CD3-1 (antibody, V domains shown, Chimeric hybridoma mAb: human V, CH1, upper hinge; mouse middle hinge, CH2, CH3) VH: EVQLVESGGGLVKPGGSLRLSCAASGFTLSSYSMNWVRQAPGKGLEWVSSISRSGSYIYYADSVKGRFTISRDNAKNSLYLQMNSLRAEDTAVYYCAREKWELLYFDYWGQGTLVTVSS VL: NFMLTQPHSVSESPGKTVTISCTRSSGSIASNYVQWYQQRPGSSPTTVIYEDNQRPSGVPDRFSGSIDSSSNSASLTISGLKTEDEADYYCQSYDSSNRVFGGGTKLTVL , koff read as 0.0157

Notebook: ABL-CD3-6 (antibody, V domains shown, Chimeric hybridoma mAb: human V, CH1, upper hinge; mouse middle hinge, CH2, CH3) VH: EVQLVDSGGGLVKPGGSLRLSCAASGFTFSSYSMNWVRQAPGKGLEWVSSISSRGSYRNYADSVKGRFTISRDNAKNSLYLQMNSLRAEDTAVYYCARDRRELLLDCWGQGTLVTVSS VL: SYELTQPPSVSVSPGQTARITCSGDALPKKYAYWYQQKSGQAPVLVIYEDSKRPSGIPERFSGSSSGTMATLTISGAQVEDEADYYCYSTDSSGNHSWVFGGGTKLTVL , koff read as 0.0333
